- assayInfo: E. coli acrAB mutant growth effects, primary screen, E. coli filamentation inducers, strain DRC39, OD650, 24 h (AID 1178);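 note: growth measured as culture turbidity by optical density at 650 nm; test concentration not given here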
- runParameters: higher = more signal, called active from +8 up or from −8 down
measurementType: z-score
Lab note: record just the number, no unit beside it.

Task: # input molecule: O=C1[C@H]2[C@H]3[C@H](O)[C@H](O)CC(=NOCc4ccccc4)[C@@H]3CC[C@H]2C(=O)N1Cc1ccc2c(c1)OCO2 ; wanted: its z-score
Result: 0.419

Task: # z-score lookup, item CCOC(=O)NN=C1C[C@@H](O)[C@@H](O)[C@@H]2[C@@H]3C(=O)N([C@@H](C)c4ccccc4)C(=O)[C@@H]3CC[C@H]12
Result: -0.212

Task: I am curious: what z-score value has been reported for CO[C@H]1COC(=O)[C@H](C)NC(=O)CC=C[C@@H](C)[C@H](OC)COC(=O)[C@@H](OCc2ccccc2)C=C[C@@H]1C ?
Result: 0.575

Task: What value of z-score has been recorded for this entry: CCOC(=O)[C@H](CC(C)C)NC(=O)CCC1CC(OC(=O)NCc2ccc3c(c2)OCO3)CC2(CCCC(COC(=O)NCC3CCCCC3)O2)O1 (some centres undefined)
Result: 0.536

Task: Record request: z-score value, item CCN1C(=O)[C@H]2[C@H]3[C@H](O)[C@H](O)CC(=O)[C@H]3CC[C@H]2C1=O
Result: -0.519

Task: I would be grateful if you could share the reported z-score for COC(=O)[C@@H]1CC[C@H](C)[C@@H](c2ccc(C)cc2)N1C(=O)c1ccc(C=NO[C@@H]2O[C@H](COC(C)=O)[C@@H](OC(C)=O)[C@H](OC(C)=O)[C@H]2OC(C)=O)cc1 .
Result: -1.44

Task: Given the entry COC(=O)CC=C[C@@H](C)[C@@H](C=NOCC[C@@H]1C=C[C@H](OC(C)=O)[C@@H](COC(C)=O)O1)NS(=O)(=O)c1ccc(C)cc1 , report its measured z-score.
Result: 0.336

Task: What value of z-score has been reported for the following molecule? CCc1cc2c(nc1CC)CCN(CCC(C)=NO[C@@H](C)c1cn([C@H](CO)Cc3ccccc3)nn1)C2
Result: 0.294

Task: // z-score lookup, key: Cn1c(=O)n2n(c1=O)[C@H]1[C@H](O)[C@@H]3O[C@@H]3C(=NOCc3ccccc3)[C@H]1CC2
Result: -0.289

Task: Give the measured z-score of COc1ccc(O[C@H]2C=C[C@@H](c3ccccc3)O[C@@H]2COC(=O)CCC(C)=NOC(C)CN2CCCc3nc(C)c(C)cc32)cc1 (some centres undefined) .
Result: 1.09

Task: Looking for the measured z-score of COc1ccc(COC(=O)NN=C2C[C@@H](O)[C@@H](O)[C@@H]3[C@@H]4C(=O)N(c5ccc(F)cc5F)C(=O)[C@@H]4CC[C@H]23)cc1 , can you help?
Result: -0.0692

Task: Given C[C@H]1Cc2c(COc3ccccc3)nc3c(c2CO1)CN(CCOc1ccccc1)CC3 , state its recorded z-score.
Result: 1.52

Task: What does the data say about its z-score? Entry: COC(=O)CC=C[C@@H](C)[C@@H](C=NO[C@@H](C)c1cn([C@H](CO)Cc2ccccc2)nn1)NS(=O)(=O)c1ccc(C)cc1
Result: 0.196

Task: # lookup: z-score of CC(C)CON=C1[C@H]2CCn3c(=O)n(Cc4cc5c(cc4Cl)OCO5)c(=O)n3[C@H]2[C@H](O)[C@@H]2O[C@H]12
Result: 0.42

====

- Test system: Sam68 (KHDRBS1)
- assayInfo: Sam68 small-molecule binders, primary screen, biochemical, small-molecule microarray, 635 nm fluorescence (AID 1125);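 note: score merges 667 nm channel intensity with signal to noise over triplicate slides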
- runParameters: small-molecule microarray binding, higher = more signal
Provide the recorded composite z-score for the entries that follow.
// no unit, no text: just the number

Task: Notebook: pull reported composite z-score for Sam68 (KHDRBS1), entry COC(=O)[C@@H]1CC[C@H](C)[C@@H](c2ccc(C)cc2)N1C(=O)c1ccc(C=NOC[C@@H](C)[C@H](OCc2ccccc2)C(C)C)cc1
Result: 1.29

Task: Please state recorded composite z-score (tested on Sam68 (KHDRBS1)) of CC(CCN1CCCc2nc(C)c(C)cc21)=NOC(C)CN1CCCCc2nc(C)c(C)cc21 (centres undefined)
Result: 1.3

Task: Checklist item: composite z-score tested on Sam68 (KHDRBS1), entry CC(CCN1CCCCc2nc(C)c(C)cc21)=NO[C@H](C)c1cn([C@H](CO)Cc2ccccc2)nn1 , value?
Result: 0.321

Task: Quick check: composite z-score on Sam68 (KHDRBS1), item COC(=O)CC=C[C@@H](C)[C@@H](C=NOC[C@H]1O[C@H](c2ccccc2)C=C[C@@H]1Oc1ccc(OC)cc1)OC ?
Result: -0.379

====

Give composite z-score for every item shown.
- assayedSystem: Torsin-1A (Homo sapiens)
- assayInfo: small-molecule binders of mutant TOR1A in lysate, primary screen, cell lysate, small-molecule microarray, COS7 lysate, 635/667 nm fluorescence (AID 1150);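 note: score pools 667 nm emission and signal to noise measuring lysate protein binding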
- runParameters: COS7 hTOR1A mutant lysate, 635 nm fluorescence, higher = more signal

Task: Which composite z-score value belongs to COc1ccc(COC(=O)NN=C2C[C@@H](O)[C@@H](O)[C@@H]3[C@@H]4C(=O)N(C5CCCCC5)C(=O)[C@@H]4CC[C@H]23)cc1 ?
Result: 0.408

Task: Item COC(=O)[C@@H]1CC[C@H](C)[C@@H](c2ccc(C)cc2)N1C(=O)c1ccc(C=NO[C@H](C)c2cn([C@H](CO)Cc3ccccc3)nn2)cc1 has what recorded composite z-score?
Result: 0.277

Task: Given C=COC[C@@H]1CN2[C@@H](CC[C@@H](C)[C@@H]2c2ccc(Br)cc2)C(=O)O1 , state its recorded composite z-score.
Result: -0.051

Task: # get_value(readout='composite z-score', item= COc1ccc(O[C@H]2C=C[C@@H](c3ccccc3)O[C@@H]2CON=CC[C@@H]2C=C[C@H](OC(C)=O)[C@@H](COC(C)=O)O2)cc1 )
Result: -0.26

Task: Item under review: CC(C)(C)N1C(=O)[C@H]2[C@H]3[C@H](O)[C@H](O)CC(=O)[C@@H]3CC[C@H]2C1=O . Reported composite z-score?
Result: 0.261

Task: State the recorded composite z-score for this entry: CC=CC1=C(CO)C(=O)[C@@H]2O[C@@H]2C1=O
Result: -0.579

Task: Value lookup for composite z-score; key = COC(=O)[C@H](C)NC(=O)CCC1CC(OC(=O)NCCc2ccc(F)cc2)CC2(CCCC(COC(=O)NCc3cccc(C(F)(F)F)c3)O2)O1 (some centres not stated)
Result: 0.0548

====

- Test system: PRMT1 (protein arginine N-methyltransferase 1)
- assayInfo: PRMT1 binders on small-molecule microarrays, primary screen, biochemical, small-molecule microarray, 635 nm fluorescence (AID 1088);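 note: binding of Prmt1 protein to compounds spotted on small-molecule microarray slides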
- runParameters: small-molecule microarray binding, higher = more signal
measurementType: composite z-score
No unit in the answer, only the number.

Task: Item COC(=O)[C@@H]1CC[C@H](C)[C@@H](c2ccc(C)cc2)N1C(=O)c1ccc(C=NOC[C@@H](C)[C@H](OCc2ccccc2)C(C)C)cc1 has what recorded composite z-score?
Result: 1.55

Task: # get_value(readout='composite z-score', item= CCC1=NOC(CCC2CC(OC(=O)NCc3cccc4c3OCO4)CC3(CCCC(COC(=O)NCCc4ccccc4OC)O3)O2)C1 (stereo not drawn) )
Result: 1.26

Task: Given the compound CCOC(=O)CCN1C(=O)[C@H]2[C@H]3[C@H](O)[C@H](O)CC(=NOCC(C)C)[C@H]3CC[C@H]2C1=O , what is its reported composite z-score?
Result: -0.309

Task: Name the reported composite z-score value associated with the compound Cc1cc2c(nc1C)CCCCN2CC(C)ON=C[C@@H](C)[C@H](OCc1ccccc1)C(C)C (stereo partly drawn)
Result: -0.766

Task: Dear colleague, I am looking for the recorded composite z-score of the following compound: COc1cccc([C@@H]2Oc3ccc(OC)cc3C(=O)[C@H]2O)c1
Result: 0.597

Task: Which measured composite z-score value corresponds to CC(CCN1CCCCc2nc(C)c(C)cc21)=NOC[C@@H](C)[C@H](OCc1ccccc1)C(C)C ?
Result: -0.262

Task: Given the entry CO[C@H]1COC(=O)CCC[C@@H](C)[C@H](OC)COC(=O)[C@@H](C)NC(=O)CC=C[C@@H]1C , report its measured composite z-score.
Result: 1.4

Task: I have this compound here, CCOC(=O)[C@H](Cc1ccccc1)NC(=O)CCC1CC(OC(=O)NCCc2ccc(F)cc2)CC2(CCCC(COC(=O)NCc3ccccc3)O2)O1 (stereo partly drawn) , and I need its recorded composite z-score.
Result: 1.56

====

- Tested on: glycogen synthase kinase-3 (GSK3A per assay name; protocol says GSK3B)
- assayInfo: GSK3 binders on small-molecule microarrays, primary screen, biochemical, small-molecule microarray, 635 nm fluorescence, GSK3A (AID 1103); note: the record names both GSK3A and GSK3B
- runParameters: small-molecule microarray binding, fluorescence 635 nm; higher = more signal
For each record, write down the corresponding composite z-score.
// return just the number, without any unit appended

Task: Request body: readout composite z-score, system glycogen synthase kinase-3 (GSK3A per assay name; protocol says GSK3B), query COC(=O)[C@@H]1CC[C@@H](C)[C@H](c2ccc(Br)cc2)N1 . Return the value.
Result: -0.0839

Task: Lab note: need composite z-score for CC(C)=CCCC(C)=CCON=C1C[C@@H](O)[C@@H](O)[C@@H]2[C@@H]3C(=O)N(c4cccc(Oc5ccccc5)c4)C(=O)[C@@H]3CC[C@@H]12 on glycogen synthase kinase-3 (GSK3A per assay name; protocol says GSK3B), anyone have it?
Result: -0.112

Task: What measured composite z-score is associated with C=Cc1ccc([C@H]2N[C@H](C(=O)O)CC[C@@H]2C)cc1 on glycogen synthase kinase-3 (GSK3A per assay name; protocol says GSK3B)?
Result: -0.88

Task: What composite z-score appears in the records for this compound with glycogen synthase kinase-3 (GSK3A per assay name; protocol says GSK3B)? CO[C@H]1COC(=O)[C@H](C)NC(=O)CC=C[C@@H](C)[C@H](OC)COC(=O)[C@@H](OCc2ccccc2)C=C[C@@H]1C
Result: 0.362

Task: State its composite z-score on glycogen synthase kinase-3 (GSK3A per assay name; protocol says GSK3B): Cc1ccc(S(=O)(=O)n2c3ccccc3c3nnc(C(=O)c4ccccc4)nc32)cc1
Result: 0.0643

Task: Form field: composite z-score recorded for COC(=O)[C@H](C)NC(=O)CCC1CC(OC(=O)NCc2ccc3c(c2)OCO3)CC2(CCCC(COC(=O)NCC3CCCCC3)O2)O1 (stereo partly drawn) with glycogen synthase kinase-3 (GSK3A per assay name; protocol says GSK3B) (enter value)
Result: 0.98

Task: Record COC(=O)[C@H](C)NC(=O)CCC1CC(OC(=O)NCCc2ccc(F)cc2)CC2(CCCC(COC(=O)NCc3cccc(C(F)(F)F)c3)O2)O1 (stereo partly drawn) : what is its composite z-score with glycogen synthase kinase-3 (GSK3A per assay name; protocol says GSK3B)?
Result: 0.359

Task: GET /values?readout=composite z-score&system=glycogen synthase kinase-3 (GSK3A per assay name; protocol says GSK3B)&item= Cc1cc2c(nc1C)CCCCN2CC(C)ON=C[C@@H](C)[C@H](OCc1ccccc1)C(C)C (stereo partly drawn)
Result: -1.05
